# ASSAY_TARGET: recombinant integrin α4β1 (Homo sapiens, UniProt P05556+P13612)
# Construct: purchased R&D Systems 5397-A3-050
# Sequence (P13612 34-970 limits assumed): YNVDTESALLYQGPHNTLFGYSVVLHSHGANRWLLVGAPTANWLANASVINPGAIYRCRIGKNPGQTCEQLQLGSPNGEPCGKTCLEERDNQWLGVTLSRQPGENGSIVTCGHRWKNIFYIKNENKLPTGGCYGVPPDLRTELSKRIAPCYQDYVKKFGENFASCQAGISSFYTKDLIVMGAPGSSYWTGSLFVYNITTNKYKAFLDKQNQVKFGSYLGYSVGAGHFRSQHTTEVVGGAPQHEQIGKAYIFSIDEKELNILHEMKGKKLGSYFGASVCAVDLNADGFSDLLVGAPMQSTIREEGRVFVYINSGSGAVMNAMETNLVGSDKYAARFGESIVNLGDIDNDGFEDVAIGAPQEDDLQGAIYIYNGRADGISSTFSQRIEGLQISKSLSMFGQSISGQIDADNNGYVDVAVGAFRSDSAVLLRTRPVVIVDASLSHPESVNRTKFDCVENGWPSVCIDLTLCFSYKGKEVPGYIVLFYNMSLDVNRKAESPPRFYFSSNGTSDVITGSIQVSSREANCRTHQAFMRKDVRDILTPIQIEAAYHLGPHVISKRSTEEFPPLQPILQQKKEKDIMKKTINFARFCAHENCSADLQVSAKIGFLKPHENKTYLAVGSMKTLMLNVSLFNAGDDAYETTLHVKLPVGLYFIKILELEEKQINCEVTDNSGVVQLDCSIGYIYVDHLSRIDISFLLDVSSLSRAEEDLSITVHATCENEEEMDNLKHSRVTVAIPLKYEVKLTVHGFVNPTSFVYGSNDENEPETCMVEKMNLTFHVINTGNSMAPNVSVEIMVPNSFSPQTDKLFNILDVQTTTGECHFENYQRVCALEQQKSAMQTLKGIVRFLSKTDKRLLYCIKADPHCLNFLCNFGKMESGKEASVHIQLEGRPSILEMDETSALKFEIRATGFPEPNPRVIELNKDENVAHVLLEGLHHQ
# Sequence (P05556 21-728 limits assumed): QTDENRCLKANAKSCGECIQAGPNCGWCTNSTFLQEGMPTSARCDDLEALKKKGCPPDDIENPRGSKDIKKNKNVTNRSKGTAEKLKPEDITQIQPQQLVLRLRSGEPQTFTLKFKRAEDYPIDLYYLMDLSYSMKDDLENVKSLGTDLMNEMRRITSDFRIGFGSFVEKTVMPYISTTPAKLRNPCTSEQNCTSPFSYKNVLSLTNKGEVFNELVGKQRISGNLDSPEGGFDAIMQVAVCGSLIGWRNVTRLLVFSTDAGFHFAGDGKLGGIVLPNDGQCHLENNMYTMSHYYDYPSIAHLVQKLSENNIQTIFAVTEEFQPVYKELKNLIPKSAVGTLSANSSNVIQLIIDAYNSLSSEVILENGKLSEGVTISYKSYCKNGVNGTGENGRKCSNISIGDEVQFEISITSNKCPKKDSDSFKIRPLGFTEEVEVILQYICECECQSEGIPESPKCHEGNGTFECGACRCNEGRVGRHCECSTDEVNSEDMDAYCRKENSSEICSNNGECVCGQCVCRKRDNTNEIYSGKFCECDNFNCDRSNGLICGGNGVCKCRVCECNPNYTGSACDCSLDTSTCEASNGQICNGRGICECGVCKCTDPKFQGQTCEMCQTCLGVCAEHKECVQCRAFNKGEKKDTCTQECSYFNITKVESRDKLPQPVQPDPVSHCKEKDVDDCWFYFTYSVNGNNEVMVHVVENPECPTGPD
# ASSAY_SUMMARY: Integrin α4β1—VCAM-1 competition ELISA
# Format: binding
# RUN_CONDITIONS: read-out: ELISA a4b1 Assay IC50
MEASURED_ENDPOINT: pIC50
pIC50 is defined as minus the log10 of a concentration measured in mol/L.

Below are worked cases with known answers.
[[record]]
smiles_record = "Cc1cccc(C)c1-c1cccc(C[C@@H]2NC(=O)[C@@H]3CCCN3[C@H](C(=O)NC(C)(C)C)[C@H](C)NC(=O)[C@H]([C@@H](C)O)NC(=O)[C@H](CC(=O)O)NC(=O)[C@H](CC(C)C)NC(=O)C[C@H](CCCCN)NC2=O)c1"
measured_result = 5.74

[[record]]
smiles_record = "CC[C@@H](C)[C@@H]1NC(=O)[C@H](CC(=O)O)NC(=O)[C@H](CC(C)C)NC(=O)C[C@H](CCCCN)NC(=O)[C@H](Cc2ccc(CN)cc2)NC(=O)[C@@H]2CCCN2[C@H](C(=O)NC(C)(C)C)[C@H](C)NC1=O"
measured_result = 6.26

[[record]]
smiles_record = "CC(C)C[C@@H]1NC(=O)CN(C)C(=O)[C@H](Cc2ccc(I)cc2)NC(=O)[C@@H]2CCCN2[C@H](C(=O)NC(C)(C)C)[C@H](C)NC(=O)[C@H]([C@@H](C)O)NC(=O)[C@H](CC(=O)O)NC1=O"
measured_result = 5.62

[[record]]
smiles_record = "CC(C)C[C@@H]1NC(=O)[C@H](Cc2ccc(-c3ccccc3)cc2)NC(=O)[C@@H]2C[C@@H](F)CN2[C@H](C(=O)NC(C)(C)C)[C@H](C)NC(=O)[C@H]([C@@H](C)O)NC(=O)[C@H](CC(=O)O)NC1=O"
measured_result = 6.59

[[record]]
smiles_record = "CC(C)C[C@@H]1NC(=O)c2cccc(c2)CNC(=O)[C@@H]2CCCN2[C@H](C(=O)NC(C)(C)C)[C@H](C)NC(=O)[C@H]([C@@H](C)O)NC(=O)[C@H](CC(=O)O)NC1=O"
measured_result = 5.96


Q: Return pIC50 (reported value) for this molecule: CC(C)C[C@@H]1NC(=O)C[C@H](CCCCN)NC(=O)C2(CCNCC2)NC(=O)[C@@H]2CCCN2[C@H](C(=O)NC(C)(C)C)[C@H](C)NC(=O)[C@H]([C@@H](C)O)NC(=O)[C@H](CC(=O)O)NC1=O
A: 6.11

Q: Let me know recorded pIC50 for CC(C)C[C@@H]1NC(=O)CN(C)C(=O)[C@H](Cc2cccc3ccccc23)NC(=O)[C@@H]2CCCN2[C@H](C(=O)NC(C)(C)C)[C@H](C)NC(=O)[C@H]([C@@H](C)O)NC(=O)[C@H](CC(=O)O)NC1=O , thanks.
A: 5.86

====

Listed here: items and their measured ELISA Assay Ratio β1/β7.
# ASSAY_TARGET: recombinant integrin α4β1 (Homo sapiens, UniProt P05556+P13612)
# Construct: purchased R&D Systems 5397-A3-050
# ASSAY_SUMMARY: Integrin α4β1—VCAM-1 competition ELISA
# Assay type: binding
# RUN_CONDITIONS: ratio of ELISA IC50s, α4β1 over α4β7
Lab note: jot down the number only; don't add units.

Below are worked cases with known answers.
[[record]]
molecule = "CC(C)C[C@@H]1NC(=O)c2ccc(-c3ccc(N4CCN(c5ncc([N+](=O)[O-])c(N6CCN(c7ccc(-c8ccc9cc8CNC(=O)[C@@H]8CCCN8[C@H](C(=O)NC(C)(C)C)[C@H](C)NC(=O)[C@H]([C@@H](C)O)NC(=O)[C@H](CC(=O)O)NC(=O)[C@H](CC(C)C)NC9=O)cc7)CC6)n5)CC4)cc3)c(c2)CNC(=O)[C@@H]2CCCN2[C@H](C(=O)NC(C)(C)C)[C@H](C)NC(=O)[C@H]([C@@H](C)O)NC(=O)[C@H](CC(=O)O)NC1=O [Compound 468]"
assay_target = "recombinant integrin α4β1 (Homo sapiens, UniProt P05556+P13612)"
measured_result = 0.3

[[record]]
molecule = "CC(C)C[C@@H]1NC(=O)c2ccc(-c3ccc(N4CCN(C(=O)CCCCCCCCCCC(=O)N5CCN(c6ccc(-c7ccc8cc7CNC(=O)[C@@H]7CCCN7[C@H](C(=O)NC(C)(C)C)[C@H](C)NC(=O)[C@H]([C@@H](C)O)NC(=O)[C@H](CC(=O)O)NC(=O)[C@H](CC(C)C)NC8=O)cc6)CC5)CC4)cc3)c(c2)CNC(=O)[C@@H]2CCCN2[C@H](C(=O)NC(C)(C)C)[C@H](C)NC(=O)[C@H]([C@@H](C)O)NC(=O)[C@H](CC(=O)O)NC1=O [Compound 392]"
assay_target = "recombinant integrin α4β1 (Homo sapiens, UniProt P05556+P13612)"
measured_result = 0.3

[[record]]
molecule = "CC(C)C[C@@H]1NC(=O)c2ccc(-c3ccc(N4CCN(C(=O)c5ccc(-c6cccc(C(=O)N7CCN(c8ccc(-c9ccc%10cc9CNC(=O)[C@@H]9CCCN9[C@H](C(=O)NC(C)(C)C)[C@H](C)NC(=O)[C@H]([C@@H](C)O)NC(=O)[C@H](CC(=O)O)NC(=O)[C@H](CC(C)C)NC%10=O)cc8)CC7)n6)nc5)CC4)cc3)c(c2)CNC(=O)[C@@H]2CCCN2[C@H](C(=O)NC(C)(C)C)[C@H](C)NC(=O)[C@H]([C@@H](C)O)NC(=O)[C@H](CC(=O)O)NC1=O [Compound 466]"
assay_target = "recombinant integrin α4β1 (Homo sapiens, UniProt P05556+P13612)"
measured_result = 0.3


Q: Read the entry CC(C)C[C@@H]1NC(=O)c2ccc(-c3ccc(N4CCN(CC(=O)N5CCN(c6ccc(-c7ccc8cc7CNC(=O)[C@@H]7CCCN7[C@H](C(=O)NC(C)(C)C)[C@H](C)NC(=O)[C@H]([C@@H](C)O)NC(=O)[C@H](CC(=O)O)NC(=O)[C@H](CC(C)C)NC8=O)cc6)CC5)CC4)cc3)c(c2)CNC(=O)[C@@H]2CCCN2[C@H](C(=O)NC(C)(C)C)[C@H](C)NC(=O)[C@H]([C@@H](C)O)NC(=O)[C@H](CC(=O)O)NC1=O [Compound 481] and write its reported ELISA Assay Ratio β1/β7.
A: 0.2

Q: State, in one line, measured ELISA Assay Ratio β1/β7 of CC(C)C[C@@H]1NC(=O)c2ccc(-c3ccc(N4CCN(C(=O)C5(C(=O)N6CCN(c7ccc(-c8ccc9cc8CNC(=O)[C@@H]8CCCN8[C@H](C(=O)NC(C)(C)C)[C@H](C)NC(=O)[C@H]([C@@H](C)O)NC(=O)[C@H](CC(=O)O)NC(=O)[C@H](CC(C)C)NC9=O)cc7)CC6)Cc6ccccc6C5)CC4)cc3)c(c2)CNC(=O)[C@@H]2CCCN2[C@H](C(=O)NC(C)(C)C)[C@H](C)NC(=O)[C@H]([C@@H](C)O)NC(=O)[C@H](CC(=O)O)NC1=O [Compound 461]
A: 0.4

Q: Consider the molecule CC(C)C[C@@H]1NC(=O)c2ccc(-c3ccc(N4CCN(C(=O)CCOCCOCCNC(=O)CCCCCC(=O)NCCOCCOCCC(=O)N5CCN(c6ccc(-c7ccc8cc7CNC(=O)[C@@H]7CCCN7[C@H](C(=O)NC(C)(C)C)[C@H](C)NC(=O)[C@H]([C@@H](C)O)NC(=O)[C@H](CC(=O)O)NC(=O)[C@H](CC(C)C)NC8=O)cc6)CC5)CC4)cc3)c(c2)CNC(=O)[C@@H]2CCCN2[C@H](C(=O)NC(C)(C)C)[C@H](C)NC(=O)[C@H]([C@@H](C)O)NC(=O)[C@H](CC(=O)O)NC1=O [Compound 505] . State its measured ELISA Assay Ratio β1/β7.
A: 0.3

Q: Give the reported value of ELISA Assay Ratio β1/β7 for this record: CC(C)C[C@@H]1NC(=O)c2ccc(-c3ccc(N4CCN(C(=O)C[C@@H](N)C(=O)N5CCN(c6ccc(-c7ccc8cc7CNC(=O)[C@@H]7CCCN7[C@H](C(=O)NC(C)(C)C)[C@H](C)NC(=O)[C@H]([C@@H](C)O)NC(=O)[C@H](CC(=O)O)NC(=O)[C@H](CC(C)C)NC8=O)cc6)CC5)CC4)cc3)c(c2)CNC(=O)[C@@H]2CCCN2[C@H](C(=O)NC(C)(C)C)[C@H](C)NC(=O)[C@H]([C@@H](C)O)NC(=O)[C@H](CC(=O)O)NC1=O [Compound 493]
A: 0.3

Q: Please list ELISA Assay Ratio β1/β7 recorded for the molecule CC(C)C[C@@H]1NC(=O)c2ccc(-c3ccc(N4CCN(Cc5cccc(CN6CCN(c7ccc(-c8ccc9cc8CNC(=O)[C@@H]8CCCN8[C@H](C(=O)NC(C)(C)C)[C@H](C)NC(=O)[C@H]([C@@H](C)O)NC(=O)[C@H](CC(=O)O)NC(=O)[C@H](CC(C)C)NC9=O)cc7)CC6)c5)CC4)cc3)c(c2)CNC(=O)[C@@H]2CCCN2[C@H](C(=O)NC(C)(C)C)[C@H](C)NC(=O)[C@H]([C@@H](C)O)NC(=O)[C@H](CC(=O)O)NC1=O [Compound 499]
A: 0.2

Q: Consider the molecule CC(C)C[C@@H]1NC(=O)c2ccc(-c3ccc(N4CCN(C(=O)COCC(=O)N5CCN(c6ccc(-c7ccc8cc7CNC(=O)[C@@H]7CCCN7[C@H](C(=O)NC(C)(C)C)[C@H](C)NC(=O)[C@H]([C@@H](C)O)NC(=O)[C@H](CC(=O)O)NC(=O)[C@H](CC(C)C)NC8=O)cc6)CC5)CC4)cc3)c(c2)CNC(=O)[C@@H]2CCCN2[C@H](C(=O)NC(C)(C)C)[C@H](C)NC(=O)[C@H]([C@@H](C)O)NC(=O)[C@H](CC(=O)O)NC1=O [Compound 390] . State its measured ELISA Assay Ratio β1/β7.
A: 0.2

Source listed as patent US11713338B2.
